- ASSAY_EXPLANATION: amyloid nucleation score (Sup35N fusion, yeast selection) (log enrichment); library NNK2; higher = more nucleation; inactive = no reads after selection;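 note: zero at mode of non-aggregating sequences after 7 days selection at 30°C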
Tick criterion met if amyloid nucleation score is 0.09 or greater. Tick criterion not met if amyloid nucleation score is less than 0.09.

SUBSTANCE: QRLYPFYCIGYYITMYVVHC
CAT: criterion met
--
SUBSTANCE: LVVCKHVV
CAT: criterion not met
--
SUBSTANCE: GTLWRFKESTMGLTGITAGT
CAT: criterion met
--
SUBSTANCE: NSWASPTVVFIRPVHMLLVL
CAT: criterion met

Now consider a different substance.
Asked: Reported amyloid nucleation score reaches at least 0.09 for `FTLFVRHPGIVALERNFMVR` ?
Given back: criterion not met

====

- ASSAY_EXPLANATION: amyloid nucleation score (Sup35N fusion, yeast selection) (log enrichment); library NNK2; higher = more nucleation; inactive = no reads after selection
MEASURED_PROPERTY: amyloid nucleation score

Worked cases, answers included:
SUBSTANCE: GSYCCLVKFMKFFSSLGHQF
amyloid nucleation score: -1.29
--
SUBSTANCE: IRALDGHGFSSPWARFGPAG
amyloid nucleation score: 0.755
--
SUBSTANCE: QCAVDSPYDIRKLRR
amyloid nucleation score: -0.086
--
SUBSTANCE: VATLMIKFR
amyloid nucleation score: 4.12
--
SUBSTANCE: IELGFFSGTVIVVSYWEFTR
amyloid nucleation score: -1.02
--
SUBSTANCE: SLFFFR
amyloid nucleation score: 5.03
--
SUBSTANCE: SFGFVAMMIVRCANFRASPV
amyloid nucleation score: 0.688
--
SUBSTANCE: VENVTDGAVSARYDDMDTSS
amyloid nucleation score: -0.179

Asked: amyloid nucleation score lookup needed for `SGFLIRKHAKLYKPDQPLLV` , thanks.
Given back: 0.101

Asked: amyloid nucleation score lookup needed for `CIFILTD` , thanks.
Given back: -1.67

====

- ASSAY_EXPLANATION: amyloid nucleation score (Sup35N fusion, yeast selection) (log enrichment); library NNK3; higher = more nucleation; inactive = no reads after selection
MEASURED_PROPERTY: amyloid nucleation score

Worked cases, answers included:
SUBSTANCE: PRRMHMGHAVFDIMGTLRSK
MEASURED_PROPERTY: amyloid nucleation score
REPORTED_RESULT: 0.9
--
SUBSTANCE: HLVRCNDRSNLRESGPS
MEASURED_PROPERTY: amyloid nucleation score
REPORTED_RESULT: inactive
--
SUBSTANCE: RRSRFTFSYIIRSLCASRTF
MEASURED_PROPERTY: amyloid nucleation score
REPORTED_RESULT: inactive
--
SUBSTANCE: VMRLHRCKELVCDSIYTLRG
MEASURED_PROPERTY: amyloid nucleation score
REPORTED_RESULT: inactive
--
SUBSTANCE: VRESAWGLYNRYFSVFSAVV
MEASURED_PROPERTY: amyloid nucleation score
REPORTED_RESULT: inactive

Asked: amyloid nucleation score lookup needed for `SFNHCM` , thanks.
Given back: inactive

Asked: amyloid nucleation score lookup needed for `MIPCLHEFLYLNSWDNKVGL` , thanks.
Given back: inactive

Asked: amyloid nucleation score lookup needed for `QLRICTR` , thanks.
Given back: -0.358

Asked: amyloid nucleation score lookup needed for `VRTRWFIAPVCVARGSLCLV` , thanks.
Given back: inactive

Asked: amyloid nucleation score lookup needed for `SLLYEEPEVLINNSSGSAS` , thanks.
Given back: inactive

Asked: amyloid nucleation score lookup needed for `MKIGETYDLTSINPAAWNVR` , thanks.
Given back: inactive

Asked: amyloid nucleation score lookup needed for `RPFNRTYHILLYQMHYVRST` , thanks.
Given back: inactive

Asked: amyloid nucleation score lookup needed for `FYKMVGVRYGC` , thanks.
Given back: inactive

Asked: amyloid nucleation score lookup needed for `RVYVLLLNGQPFCRKYRL` , thanks.
Given back: inactive

Asked: amyloid nucleation score lookup needed for `LQFNISYRMFSEVCVFLLVW` , thanks.
Given back: inactive

Asked: amyloid nucleation score lookup needed for `SNSYYWPNLYVFSTVNMVSD` , thanks.
Given back: 2

Asked: amyloid nucleation score lookup needed for `GTLDNDRVIVWSDLDFSCFR` , thanks.
Given back: inactive
